Could you please report measured Ki for the items listed next?
- study.system: Recombinant Human Poly(ADP-Ribose) Polymerase (PARP), PARP-1 (Homo sapiens (Human))
- Sequence (P09874 whole entry): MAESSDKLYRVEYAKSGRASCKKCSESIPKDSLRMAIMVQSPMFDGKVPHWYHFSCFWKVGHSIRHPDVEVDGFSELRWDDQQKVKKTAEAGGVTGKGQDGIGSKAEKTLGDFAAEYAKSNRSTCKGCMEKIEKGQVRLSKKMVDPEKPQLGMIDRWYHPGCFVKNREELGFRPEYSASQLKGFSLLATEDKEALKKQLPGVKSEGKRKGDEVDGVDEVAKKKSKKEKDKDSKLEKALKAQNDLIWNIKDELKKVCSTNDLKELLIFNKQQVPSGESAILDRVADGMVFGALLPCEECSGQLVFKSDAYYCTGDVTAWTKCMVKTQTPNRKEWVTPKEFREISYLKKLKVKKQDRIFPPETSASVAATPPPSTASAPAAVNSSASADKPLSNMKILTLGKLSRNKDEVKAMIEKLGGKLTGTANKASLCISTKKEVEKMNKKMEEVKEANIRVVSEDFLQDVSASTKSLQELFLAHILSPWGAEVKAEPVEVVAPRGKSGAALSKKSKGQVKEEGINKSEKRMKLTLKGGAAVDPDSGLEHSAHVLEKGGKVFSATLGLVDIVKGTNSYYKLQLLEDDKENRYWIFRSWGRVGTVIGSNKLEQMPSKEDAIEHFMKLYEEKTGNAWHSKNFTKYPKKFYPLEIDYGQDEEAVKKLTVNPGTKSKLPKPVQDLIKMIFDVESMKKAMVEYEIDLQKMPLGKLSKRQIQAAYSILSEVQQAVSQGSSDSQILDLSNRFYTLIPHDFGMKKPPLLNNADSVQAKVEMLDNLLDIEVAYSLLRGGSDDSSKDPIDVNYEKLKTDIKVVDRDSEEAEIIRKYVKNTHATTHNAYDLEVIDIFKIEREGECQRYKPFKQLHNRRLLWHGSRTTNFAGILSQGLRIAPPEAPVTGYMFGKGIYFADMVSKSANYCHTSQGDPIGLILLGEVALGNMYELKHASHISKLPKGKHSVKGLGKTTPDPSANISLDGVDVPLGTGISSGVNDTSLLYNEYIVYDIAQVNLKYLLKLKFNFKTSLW
- assay.setup: read-out: PARP-1 (Ki); Table 2; A2 is C1-alkyl versus no A2 (bond)
Give bare numbers, in nM.

Solved cases (3 shown):
Query: State the recorded Ki for this entry: O=C1CCN1c1cc(-c2n[nH]c(=O)c3c2CCCC3)ccc1F
Response: 291

Query: State the recorded Ki for this entry: O=C1CCN1c1cc(Cc2n[nH]c(=O)c3c2CCCC3)ccc1F
Response: 6

Query: State the recorded Ki for this entry: O=C1CCCN1c1cc(Cc2n[nH]c(=O)c3c2CCCC3)ccc1F [drawing 7]
Response: 1.2

Below: the item to evaluate.
Query: State the recorded Ki for this entry: O=C1CCCN1c1cc(-c2n[nH]c(=O)c3c2CCCC3)ccc1F [drawing 8]
Response: 191
